The reported numbers originate from patent US20140112915A1.

# SYSTEM_TESTED: T1, Recombinant human IL-18 (human, UniProt Q14116 37-193)
# T1 sequence: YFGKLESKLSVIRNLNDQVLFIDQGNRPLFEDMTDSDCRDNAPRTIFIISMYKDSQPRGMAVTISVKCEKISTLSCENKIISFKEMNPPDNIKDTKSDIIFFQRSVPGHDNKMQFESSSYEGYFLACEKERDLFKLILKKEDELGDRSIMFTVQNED
# MEASUREMENT_PROTOCOL: cell-based or functional assay
MEASURED_QUANTITY: IC50, inhibition of IFN-γ release, human whole blood, recombinant human IL-18 (7 nM) (µM)
State the answer as a number, implicitly in µM.

INSERT INTO measurements (binder, measured_result) VALUES
  ('MOR10222_E1Q_N30S_M54N (antibody, human IgG1, lambda, L234A L235A, V domains shown) VH: QVQLVQSGAEVKKPGSSVKVSCKASGGTFSSYAISWVRQAPGQGLEWMGNIIPNTGQTYYAQKFQGRVTITADESTSTAYMELSSLRSEDTAVYYCARAAYHPLVFDNWGQGTLVTVSS VL: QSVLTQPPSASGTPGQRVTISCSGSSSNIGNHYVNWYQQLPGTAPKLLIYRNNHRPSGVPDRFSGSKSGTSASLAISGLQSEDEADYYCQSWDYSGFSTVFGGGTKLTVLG', 0.0465);

Next item in the queue.
// query May I ask what IC50, inhibition of IFN-γ release, human whole blood, recombinant human IL-18 (7 nM) has been recorded for MOR9464_N30V (antibody, human IgG1, lambda, L234A L235A, V domains shown) VH: EVQLVQSGAEVKKPGSSVKVSCKASGGTFVSYAISWVRQAPGQGLEWMGNIIPMTGQTYYAQKFQGRVTITADESTSTAYMELSSLRSEDTAVYYCARAAYHPLVFDNWGQGTLVTVSS VL: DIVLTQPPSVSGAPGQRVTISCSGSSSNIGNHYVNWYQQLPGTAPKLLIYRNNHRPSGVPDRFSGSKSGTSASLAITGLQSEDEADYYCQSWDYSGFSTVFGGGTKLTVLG ?
// result 0.0127
